# Lookup of reported TGI keyed by entry
Test system: A498 renal
assay: NCI tumour cell line growth inhibition, 48 h

Fc1cccc(-n2ccc(-c3ccccc3)nc2=S)c1 = 33.3 µM
CC(=O)n1cc(OP(=O)(Oc2ccccc2)Oc2ccccc2)c2ccccc21 = > 100 µM
CC(C)(C)OC(=O)NCCCC(=O)NC1(c2cc3ccccc3s2)CCCCC1 = 51 µM

Req: What does the record list as TGI for CC1=C(C(=O)Nc2cc(Cl)c3[nH]ncc3c2)C(c2ccc(C(F)(F)F)cc2)CC(=O)N1 (stereo unspecified) ?
Resp: > 25 µM

Req: What does the record list as TGI for `COc1ccc(C2=C(N)c3ncccc3C2=O)cc1` ?
Resp: > 100 µM

Req: What does the record list as TGI for `CC1=C(/C=C/C(C)=C/C=C/C(C)=C/C(=O)O)C(C)(C)CCC1` ?
Resp: > 91.1 µM

====

Test system: RXF 393 renal
assay: NCI tumour cell line growth inhibition, 48 h
# Lookup of reported TGI keyed by entry
Report only the number, with the unit µM understood.

Please review the following examples before continuing.
CN(CC(=O)Nc1nc2ccccc2[nH]1)S(=O)(=O)c1ccc(Cl)cc1 = 55.6
CCOC(=O)C#Cc1c(C(=O)OCC)nnn1Cc1ccc([N+](=O)[O-])cc1 = 3.52
CC([C@H]1CCC2C3CCC4C[C@@H](N)CC[C@]4(C)C3CC[C@@]21C)N(C)C (stereo not given in full) = 14.9

Now look at this entry.
Req: Recorded TGI for `N#Cc1cc(S(=O)(=O)Nc2nnc(-c3ccccc3)c(-c3ccccc3)n2)c(SCc2ccccc2)cc1Cl` with RXF 393 renal, please?
Resp: 22.7

====

# Lookup of reported TGI keyed by entry
System: CCRF-CEM leukemia
assay: NCI tumour cell line growth inhibition, 48 h

Please review the following examples before continuing.
O=C(CC(=O)c1cccc2ccccc12)C(=O)NC1C2CC3CC(C2)CC1C3 (stereo unspecified) = > 100 µM
C/C(=N\NC(=S)SCc1ccccc1)c1ccccn1 = < 0.01 µM
COc1cc(-c2csc(NC(=O)Nc3ccc(C(F)(F)F)cc3)n2)cc(OC)c1OC = 18.9 µM

Req: Recorded TGI for COc1cc2c(cc1O)C1(Cc3ccc4c(c3C1=O)OCO4)N(C)CC2 (stereo unspecified) with CCRF-CEM leukemia, please?
Resp: > 100 µM

Req: Recorded TGI for `NS(=O)(=O)NCCNc1nonc1C(=Nc1ccc(F)c(Br)c1)NO` with CCRF-CEM leukemia, please?
Resp: > 100 µM

Req: Recorded TGI for `O=C(CCc1ccccc1)n1cccc1CO` with CCRF-CEM leukemia, please?
Resp: > 100 µM

====

Test system: MDA-MB-231 breast
assay: NCI tumour cell line growth inhibition, 48 h; in the data active = GI50 below about 0.43 µM; inactive = the rest
Pick one: 1 (yes) for active, 0 (no) for inactive

Would you please look over these solved cases?
COc1ccc2c(c1)C(=O)/C(=C/c1ccc([N+](=O)[O-])o1)O2 = 0 (no)
O=C(O)c1c(=O)cccc2ssc12 = 0 (no)
C/C(=C\c1cc(C(F)(F)F)n(-c2ccc(N)cc2)n1)[C@@H]1C[C@@H]2O[C@]2(C)CCC[C@H](C)[C@H](O)[C@@H](C)C(=O)C(C)(C)[C@@H](O)CC(=O)O1 = 1 (yes)

Req: For this molecule, state the assay outcome: `NS(=O)(=O)c1ccc(N(/C=C/C(=O)C(F)(F)F)Cc2ccc(Cl)cc2)cc1`
Resp: 0 (no)

Req: For this molecule, state the assay outcome: `CO/N=C(\COc1ccc2oc(-c3ccccc3)cc(=O)c2c1)c1ccc(OC)cc1`
Resp: 0 (no)

Req: For this molecule, state the assay outcome: `Oc1ccc(C2c3ccccc3Oc3ccccc32)c2cccnc12`
Resp: 0 (no)

Req: For this molecule, state the assay outcome: `Cc1cc2c(C(N)=O)c(N)n(-c3c(C)ccc(O)c3C)c2nc1C`
Resp: 0 (no)

Req: For this molecule, state the assay outcome: `COC(=O)c1cc2c3ccccc3[nH]c2c2sccc12`
Resp: 0 (no)

Req: For this molecule, state the assay outcome: `CCc1ccc(C(=Nc2ccc(N(C)C(=O)CN3CCN(C)CC3)cc2)c2c(O)[nH]c3ccc(C(=O)OC)cc23)cc1`
Resp: 0 (no)

meta.source: PubChem BioAssay (NCI)
